Several publications report IC50 on Tyrosine-protein kinase HCK (Homo sapiens); those values are gathered here.

Examples from the recorded data:
NC(=O)c1ccc(Nc2ncnc(-n3c(N)nc4ccccc43)n2)cc1 : 6.93 to 10.1 µM
CNC(=O)Cc1cncc(Nc2cc(COc3ccc(NC(=O)Nc4cc(C(C)(C)C)nn4-c4ccc(C)cc4)c4ccccc34)ccn2)n1 : 0.011 µM
COc1ccc(Nc2ncccc2-c2ncnc(Nc3cc(OC)c(OC)c(OC)c3)n2)c(C)c1 : > 9.48 µM

Observed IC50 on Tyrosine-protein kinase HCK (Homo sapiens) for CNC(=O)Cc1cnc(Nc2cc(COc3ccc(NC(=O)Nc4cc(C(C)(C)C)nn4-c4ccc(C)cc4)c4ccccc34)ccn2)cn1 , please.
0.011 µM

Observed IC50 on Tyrosine-protein kinase HCK (Homo sapiens) for COc1cc(Nc2ncnc(N3c4ccccc4CCC3C)n2)cc(OC)c1OC (centres unmarked) , please.
8.59 to 11 µM

Observed IC50 on Tyrosine-protein kinase HCK (Homo sapiens) for COc1cc(OC)cc(C(=O)c2c[nH]c3ncc(-c4cccc(NS(C)(=O)=O)c4)cc23)c1 , please.
≤ 10 µM

Observed IC50 on Tyrosine-protein kinase HCK (Homo sapiens) for CCOC(=O)c1cnc(NC(=O)c2cc3cc(Cl)ccc3[nH]c2=O)s1 , please.
< 50 µM

Observed IC50 on Tyrosine-protein kinase HCK (Homo sapiens) for Cc1cc(-n2nc(C(C)(C)C)cc2NC(=O)Nc2ccc(OCc3ccnc(Nc4cncc(C5CC5)n4)c3)c3ccccc23)cs1 , please.
0.013 µM

###

pIC50: −log10 of the molar value.
Several publications report pIC50 on Tyrosine-protein kinase HCK (Homo sapiens, UniProt P08631); those values are gathered here.

Examples from the recorded data:
COc1cc(Nc2ncnc(-n3c(NC(C)c4ccc(F)cc4)nc4ccccc43)n2)cc(OC)c1OC (stereo not shown) : < 5.06
COc1cc(Nc2ncnc(Nc3ccc(C)cc3F)n2)cc(OC)c1OC : < 4.93
COCCOc1ccc(Nc2cc(-n3ccnc3Nc3c(C)cccc3C)ncn2)cc1 : 5.62

Observed pIC50 on Tyrosine-protein kinase HCK (Homo sapiens, UniProt P08631) for Nc1ncnc2c1c(-c1ccc(Oc3ccccc3)cc1)cn2[C@H]1CC[C@H](NC(=O)c2cccnc2)CC1 , please.
7.93

Observed pIC50 on Tyrosine-protein kinase HCK (Homo sapiens, UniProt P08631) for O=C(c1c(F)ccc(NS(=O)(=O)c2ccccc2)c1F)c1c[nH]c2ncc(Cl)cc12 , please.
≥ 5.00

Observed pIC50 on Tyrosine-protein kinase HCK (Homo sapiens, UniProt P08631) for COc1cc(Nc2ncnc(-c3ccnc(NCCCO)c3)n2)cc(OC)c1OC , please.
< 4.96

Observed pIC50 on Tyrosine-protein kinase HCK (Homo sapiens, UniProt P08631) for COc1cc(Nc2ncnc(N3CCCc4ccc(C(F)(F)F)cc43)n2)cc(OC)c1OC , please.
< 5.01

###

Several publications report IC50 on Tyrosine-protein kinase HCK (Homo sapiens, UniProt P08631); those values are gathered here.

Examples from the recorded data:
Cc1cccc(Nc2ncnc(Nc3ccc4[nH]ccc4c3)n2)c1 : 7.59 to 11.1 µM
Cn1cc(Nc2nc3ccc(Oc4ccccc4)nc3s2)cn1 : > 10 µM
Cc1ccc(-n2nc(C(C)(C)C)cc2NC(=O)Nc2ccc(OCc3ccnc(Nc4cnccn4)c3)c3ccccc23)cc1 : 0.029 µM
COc1cc(Nc2ncnc(-n3c(NCc4ccccn4)nc4ccccc43)n2)cc(OC)c1OCCn1ccnn1 : > 7.96 µM
COc1cc(Nc2ncnc(-c3cccnc3NCc3ccccc3F)n2)cc(OC)c1OC : > 9.73 µM

Observed IC50 on Tyrosine-protein kinase HCK (Homo sapiens, UniProt P08631) for Cc1ccc(-n2nc(C(C)(C)C)cc2NC(=O)Nc2ccc(OCc3ccnc(Nc4cnc(CO)cn4)c3)c3ccccc23)cc1 , please.
0.016 µM

Observed IC50 on Tyrosine-protein kinase HCK (Homo sapiens, UniProt P08631) for CCCS(=O)(=O)Nc1ccc(F)c(C(=O)c2c[nH]c3ncc(Cl)cc23)c1F , please.
≤ 10 µM

Observed IC50 on Tyrosine-protein kinase HCK (Homo sapiens, UniProt P08631) for Cc1ccc(-n2nc(C(C)(C)C)cc2NC(=O)Nc2ccc(OCc3ccnc(Nc4cnc(CN)cn4)c3)c3ccccc23)cc1 , please.
< 0.00048 µM

Observed IC50 on Tyrosine-protein kinase HCK (Homo sapiens, UniProt P08631) for Nc1nc2ccccc2n1-c1ncnc(Nc2ccc(N3CCOCC3)cc2)n1 , please.
> 11.6 µM

Observed IC50 on Tyrosine-protein kinase HCK (Homo sapiens, UniProt P08631) for COc1cc(Nc2ncnc(Nc3cccc4ccccc34)n2)cc(OCCN2CCOCC2)c1OC , please.
0.796 to 4.78 µM

Observed IC50 on Tyrosine-protein kinase HCK (Homo sapiens, UniProt P08631) for COc1ccccc1Nc1ncnc(Nc2cc(OC)c(OC)c(OC)c2)n1 , please.
1.04 to 6.26 µM

Observed IC50 on Tyrosine-protein kinase HCK (Homo sapiens, UniProt P08631) for CCOC(=O)c1cnc(NC(=O)c2cc3cc(Cl)ccc3oc2=O)s1 , please.
< 50 µM

Observed IC50 on Tyrosine-protein kinase HCK (Homo sapiens, UniProt P08631) for CCOC(=O)c1cnc(NC(C#N)C2=Cc3cc(Cl)cc(Cl)c3OC2c2ccccc2)s1 (centres unmarked) , please.
< 50 µM

Observed IC50 on Tyrosine-protein kinase HCK (Homo sapiens, UniProt P08631) for Nc1ncnc2c1c(-c1ccc(Oc3ccccc3)cc1)cn2C1CCN(C2CCNCC2)CC1 , please.
0.0007 µM

Observed IC50 on Tyrosine-protein kinase HCK (Homo sapiens, UniProt P08631) for c1ccc(Oc2ccc3nc(Nc4cnn(C5CCOCC5)c4)sc3n2)cc1 , please.
> 10 µM

Observed IC50 on Tyrosine-protein kinase HCK (Homo sapiens, UniProt P08631) for COc1cc(Nc2ncnc(-n3c(NC(C)=O)nc4ccccc43)n2)cc(OC)c1OC , please.
> 10.3 µM

Observed IC50 on Tyrosine-protein kinase HCK (Homo sapiens, UniProt P08631) for COc1cc(Nc2ncnc(NC3CC3c3ccccc3)n2)cc(OC)c1OC (centres unmarked) , please.
> 11.4 µM

Observed IC50 on Tyrosine-protein kinase HCK (Homo sapiens, UniProt P08631) for COc1cc(Nc2ncnc(N3CCCC4CCCCC43)n2)cc(OC)c1OC (centres unmarked) , please.
6.01 to 8.76 µM
